# target-or-system: CaM C-lobe fragment (residues 80–149) (UniProt P0DP23 80-149)
# experiment-summary: ITC
readout-type: Kd (µM)

(1) NDRLQELVKLFKERTEKVKEKLIDP (peptide, UniProt Q14028 565-589, looked up) [CaM1 peptide, CNGB1 residues 565–589]
(2) GGKGAKGGKLAHERARLKELAALEAAAK (peptide, UniProt Q14028 1120-1147, looked up) [CaM2^L1132E peptide (CNGB1 residues 1120–1147, L1132E)]
(3) GGKGAKGGKLAHLRARLKELAALEAAAK (peptide, UniProt Q14028 1120-1147, looked up) [CaM2 peptide, CNGB1 residues 1120–1147]
(4) GGKGAKGGKLAHLRAREKELAALEAAAK (peptide, UniProt Q14028 1120-1147, looked up) [CaM2^L1136E peptide (CNGB1 residues 1120–1147, L1136E)]
[Q] Highest Kd first, then in falling order down to the smallest. Labels, ranked as asked.
[A] 4, 2, 1, 3
